The origin of these recorded values is patent US20240228562A1.

# Target: T1, recombinant human CTGF-Fc protein (Creative Biomart) (human)
# T1 construct: Bought; also called human CTGF with a human IgG1 Fc Tag
# T1 sequence (chain, as listed by the source limits assumed): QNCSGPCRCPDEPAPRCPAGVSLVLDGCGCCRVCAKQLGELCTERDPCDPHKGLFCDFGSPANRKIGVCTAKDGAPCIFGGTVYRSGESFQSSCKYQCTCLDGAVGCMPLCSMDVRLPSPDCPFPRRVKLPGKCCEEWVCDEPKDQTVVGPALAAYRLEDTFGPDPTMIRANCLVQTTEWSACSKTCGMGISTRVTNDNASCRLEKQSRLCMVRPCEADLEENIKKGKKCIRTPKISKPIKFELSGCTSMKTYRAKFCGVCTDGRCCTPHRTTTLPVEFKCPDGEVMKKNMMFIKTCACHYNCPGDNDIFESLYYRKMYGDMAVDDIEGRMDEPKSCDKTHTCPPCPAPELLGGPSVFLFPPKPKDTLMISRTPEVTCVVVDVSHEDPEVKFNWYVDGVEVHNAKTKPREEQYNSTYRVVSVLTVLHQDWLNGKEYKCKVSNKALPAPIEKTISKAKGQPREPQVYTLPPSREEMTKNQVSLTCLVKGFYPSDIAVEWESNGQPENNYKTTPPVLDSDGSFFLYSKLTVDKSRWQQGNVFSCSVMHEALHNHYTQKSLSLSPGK
# Experimental protocol: SPR (Biacore)
Below: a set of entries, each annotated with reported Kd.
The reply should be a number in nM, with the unit left off.

# count of solved cases: 2
{"Binder": "lipocalin mutein of SEQ ID NO: 6 (designed binder, also called hNGAL mutein; not shown: C-terminal His-tag) QDSTSDLIPAPPLSKVPLQQNFQDNQFQGKWYVVGRAGNNQLREDKSPPKMWATIYELKEDKSYDVTHVHFSTKKCRYIIDTFVPGSQPGEFTAGAIKSGPGLTSPLVRVVSTNYNQHAMVFFKWVTQNREWFTITLYGRTKELTSELKENFIRFSKSLGLPENHIVFPVPIDQCIDG", "Kd / nM": 0.514}
{"Binder": "lipocalin mutein of SEQ ID NO: 13 (designed binder, also called hNGAL mutein; not shown: C-terminal His-tag) QDSTSDLIPAPPLSKVPLQQNFQDNQFQGKWYVVGLAGNAILREDKYPAKMFATIYELKEDKSYDVTSVRFENKSCVYTSKTFVPGSQPGEFTTGNIKSAPGQTSTLVRVVSTNYNQHAMVFFKHVSQNREFFVITLYGRTKELTSELKENFIRFSKSLGLPENHIVFPVPIDQCIDG", "Kd / nM": 0.049}

Prompt: Let me know recorded Kd for lipocalin mutein of SEQ ID NO: 3 (designed binder, Parent hNGAL mutein; also called hNGAL mutein) QDSTSDLIPAPPLSKVPLQQNFQDNQFHGKWYVVGRAGNNRLREDKDPPKMWATIYELKEDKSYNVTHVHFMTKKCRYIIDTFVPGSQPGEFTLGAIKSGPGMTSPLVRIVSTNYNQHAMVFFKWVNQNREWFTITLYGRTKELTSELKENFIRFSKSLGLPENHIVFPVPIDQCIDGSAWSHPQFEK , thanks.
Completion: 37.5
